System: U2OS
assay-text: Multiplex assay against U2OS
Format: toxicity, cell-based
run-parameters: human, 48 h, 1 µM, compound concentration 1 uM, replicate 2
measured-quantity: Population Hoechst High Intensity Objects (%)
# output: bare number, implied unit %

Worked set:
1) Cl.Oc1ccc2c3c1O[C@H]1c4[nH]c5c(c4C[C@@]4(O)[C@@H](C2)N(CC2CC2)CC[C@]314)C[C@@]1(O)[C@H]2Cc3ccc(O)c4c3[C@@]1(CCN2CC1CC1)[C@H]5O4    4
2) O=C(Cc1ccc(-c2ccc(OCCN3CCOCC3)cc2)cn1)NCc1ccccc1    11
3) O=C1N/C(=N/c2ccccc2F)S/C1=C\c1ccc(C(=O)O)cc1    5

In plain terms, `Cc1cn(-c2cc(NC(=O)c3ccc(C)c(Nc4nccc(-c5cccnc5)n4)c3)cc(C(F)(F)F)c2)cn1` has a documented Population Hoechst High Intensity Objects (%) of 5

====

Tested on: HEK-293T
assay-text: Multiplex assay against HEK293T
Assay type: toxicity, cell-based
run-parameters: human, 24 h, 10 µM, compound concentration 10 uM, replicate 1
measured-quantity: Population Fragmented Nuclei (%)

get_value(item= `O=C1N/C(=N/c2ccccc2F)S/C1=C\c1ccc(C(=O)O)cc1` , readout=Population Fragmented Nuclei (%)) returns 13%

====

Listed here: items and their measured Total Cell Count.
Test system: U2OS
assay-text: Multiplex assay against U2OS
Assay type: toxicity, cell-based
run-parameters: human, 24 h, 10 µM, compound concentration 10 uM, replicate 1
Reply: number alone, nothing else.

1) CCc1cccc(CC)c1NC(=O)c1nn(C)c2c1CCc1cnc(Nc3ccc(C(=O)NC4CCN(C)CC4)cc3OC(F)(F)F)nc1-2    156
2) Cn1nc(C(F)(F)F)cc1-c1cnc(N2CCc3cc(S(=O)(=O)Nc4c(F)cc(Cl)cc4F)cc(N4CCCC4=O)c32)nc1    268

API: the following record is the query input.
response.value for `Cl.Oc1ccc2c3c1O[C@H]1c4[nH]c5c(c4C[C@@]4(O)[C@@H](C2)N(CC2CC2)CC[C@]314)C[C@@]1(O)[C@H]2Cc3ccc(O)c4c3[C@@]1(CCN2CC1CC1)[C@H]5O4` (field: Total Cell Count) = 231

====

System: Fibroblast
assay-text: Multiplex assay against human fibroblast
Type: toxicity, cell-based
run-parameters: 24 h, 10 µM, compound concentration 10 uM, replicate 1
measured-quantity: Population Mitochondria Different-Phenotype (%)
The reply should be a number in %, with the unit left off.

Observe how each entry below is paired with its result.
1) CCn1cc(-c2ccnc3[nH]c(-c4cccc(CN(C)C)c4)cc23)c(-c2ccc(NC(=O)N(C)C)cc2)n1    10
2) CCc1cccc(CC)c1NC(=O)c1nn(C)c2c1CCc1cnc(Nc3ccc(N4CCN(C)CC4)cc3OC)nc1-2    11

Field: next compound
Lookup result for `O=C(Cc1ccc(-c2ccc(OCCN3CCOCC3)cc2)cn1)NCc1ccccc1` ; measured Population Mitochondria Different-Phenotype (%): 8

====

Listed here are molecules together with their documented Total Cell Count.
Test system: HEK-293T
assay-text: Multiplex assay against HEK293T
Type: toxicity, cell-based
run-parameters: human, 12 h, 1 µM, compound concentration 1 uM, replicate 2
Respond using a number only.

The cases that follow already have their Total Cell Count on record.
1) CCN1CCN(c2ccc(Nc3cc(N(C)C(=O)Nc4c(Cl)c(OC)cc(OC)c4Cl)ncn3)cc2)CC1    1084
2) CCc1cccc(CC)c1NC(=O)c1nn(C)c2c1CCc1cnc(Nc3ccc(N4CCN(C)CC4)cc3OC)nc1-2    922
3) COc1ccc(S(=O)(=O)N(CCO)c2ccccc2CN(C)C/C=C/c2ccc(Cl)cc2)cc1.O=P(O)(O)O    929

Entry `Cc1ccc2nc(NCCN)c3ncc(C)n3c2c1.O=C(O)C(F)(F)F.O=C(O)C(F)(F)F` ; Total Cell Count = 1754
